Molecular target: CRTH2 receptor (hCRTH2) (Homo sapiens)
Construct: expressed in transfected cells; host or cells: HEK cells (HEK-hCRTH2 cell line), membranes
Sequence (Q9Y5Y4 1-395): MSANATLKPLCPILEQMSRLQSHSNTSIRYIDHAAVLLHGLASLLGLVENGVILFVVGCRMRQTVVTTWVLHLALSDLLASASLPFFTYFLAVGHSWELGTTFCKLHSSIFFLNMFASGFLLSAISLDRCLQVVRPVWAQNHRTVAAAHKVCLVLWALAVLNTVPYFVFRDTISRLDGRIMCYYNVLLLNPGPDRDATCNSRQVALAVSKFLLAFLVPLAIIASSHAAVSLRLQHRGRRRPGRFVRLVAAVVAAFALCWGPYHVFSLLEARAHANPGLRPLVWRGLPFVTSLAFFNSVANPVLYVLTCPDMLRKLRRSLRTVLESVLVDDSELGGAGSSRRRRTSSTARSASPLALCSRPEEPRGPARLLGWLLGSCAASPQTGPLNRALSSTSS
Assay: Radioligand binding assay ([3H]PGD2 competition, membranes of HEK-hCRTH2 cell line)
Settings: 3.0 nM [3H]PGD2, HEK-hCRTH2 membranes, 60 min, room temperature; read-out: Ki

| compound | Ki |
| --- | --- |
| CC1(C(O)c2ccc(C#N)cc2)CC(c2ccc3c(=O)n(-c4ccc(F)cc4)c(CCCCC(=O)O)nc3c2)=NO1 (stereo not shown) | 0.01 to 0.05 µM |
| C[C@]1(c2nc3cc(F)ccc3o2)CC(c2ccc3c(=O)n(-c4ccc(F)cc4)c(CCCCC(=O)O)nc3c2)=NO1 | 0.01 to 0.05 µM |
| O=C(O)CCCCc1nc2cc(C3=NOC(c4ccccn4)C3)ccc2c(=O)n1-c1ccc(F)cc1 (stereo not shown) [Example 15G] | 0.01 to 0.05 µM |
| O=C(O)CCCCc1nc2cc(-c3cc(CSc4ccc(F)cc4)on3)ccc2c(=O)n1-c1ccc(F)cc1 [Example 39F] | ≤ 0.01 µM |
| O=C(O)CCCCc1nc2cc(-c3cc(CS(=O)(=O)c4nc5ccccc5[nH]4)on3)ccc2c(=O)n1-c1ccc(F)cc1 [Example 39L] | ≤ 0.01 µM |
| O=C(O)CCCCc1nc2cc(-c3cc(COCc4ccc(F)cc4F)on3)ccc2c(=O)n1-c1ccc(F)cc1 | ≤ 0.01 µM |
| O=C(O)CCCCc1nc2cc(-c3cc([C@H](O)c4ccc(F)cc4)on3)ccc2c(=O)n1-c1ccc(F)cc1 [Example 25C] | ≤ 0.01 µM |

###

biological target: CRTH2 receptor (hCRTH2) (Homo sapiens, UniProt Q9Y5Y4); construct: expressed in transfected cells; host or cells: HEK cells (HEK-hCRTH2 cell line), membranes; experiment: Radioligand binding assay ([3H]PGD2 competition, membranes of HEK-hCRTH2 cell line); conditions: 3.0 nM [3H]PGD2, HEK-hCRTH2 membranes, 60 min, room temperature; read-out: Ki
The entries below come with measured Ki values attached.

| compound | Ki |
| --- | --- |
| C[C@H](c1ccc(F)cc1)c1cc(-c2ccc3c(=O)n(-c4ccc(F)cc4)c(CCCCC(=O)O)nc3c2)no1 | ≤ 0.01 µM |
| O=C(O)CCCCc1nc2cc(C3=NO[C@H](c4nc5ccc(Cl)cc5o4)C3)ccc2c(=O)n1-c1ccc(F)cc1 | 0.01 to 0.05 µM |
| CC1(c2nc3cc(Cl)ccc3o2)CC(c2ccc3c(=O)n(-c4ccc(F)cc4)c(CCCCC(=O)O)nc3c2)=NO1 (stereo not shown) | ≤ 0.01 µM |
| C[C@@]1(c2cn3ccccc3n2)CC(c2ccc3c(=O)n(-c4ccc(F)cc4)c(CCCCC(=O)O)nc3c2)=NO1 | ≤ 0.01 µM |
| O=C(O)CCCCc1nc2cc(-c3cc(CN4CCc5ccccc54)on3)ccc2c(=O)n1-c1ccc(F)cc1 | ≤ 0.01 µM |
| O=C(O)CCCCc1nc2cc(C3=NOC(c4cccc(Cl)c4)C3)ccc2c(=O)n1-c1ccc(F)cc1 (stereo not shown) [Example 15P] | ≤ 0.01 µM |
| O=C(O)CCCCc1nc2cc(C3=NOC(c4ccncc4)C3)ccc2c(=O)n1-c1ccc(F)cc1 (stereo not shown) [Example 15H] | 0.01 to 0.05 µM |

###

Molecular target: CRTH2 receptor (hCRTH2) (Homo sapiens, UniProt Q9Y5Y4)
Construct: expressed in transfected cells; host or cells: HEK cells (HEK-hCRTH2 cell line), membranes
Sequence (Q9Y5Y4 1-395): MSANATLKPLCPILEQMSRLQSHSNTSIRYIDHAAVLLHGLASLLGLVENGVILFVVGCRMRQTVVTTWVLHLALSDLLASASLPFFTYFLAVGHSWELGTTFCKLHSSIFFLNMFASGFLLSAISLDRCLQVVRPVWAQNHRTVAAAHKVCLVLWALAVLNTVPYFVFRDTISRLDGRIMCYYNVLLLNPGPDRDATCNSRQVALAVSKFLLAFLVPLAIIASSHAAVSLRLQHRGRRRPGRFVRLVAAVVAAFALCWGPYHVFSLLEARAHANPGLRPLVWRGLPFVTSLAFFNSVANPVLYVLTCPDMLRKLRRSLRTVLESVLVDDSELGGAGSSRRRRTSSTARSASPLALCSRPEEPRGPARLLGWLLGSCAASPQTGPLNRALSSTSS
Test: Radioligand binding assay ([3H]PGD2 competition, membranes of HEK-hCRTH2 cell line)
Conditions: 3.0 nM [3H]PGD2, HEK-hCRTH2 membranes, 60 min, room temperature; read-out: Ki
pKi: −log10 of the molar value.
The entries below come with measured pKi values attached.
measured_parameter: pKi

| compound | test_value |
| --- | --- |
| C[C@@]1(Cc2ccccc2)CC(c2ccc3c(=O)n(-c4ccccc4)c(CCCCC(=O)O)nc3c2)=NO1 [Example 26M] | ≥ 8.00 |
| O=C(O)CCCCc1nc2cc(C3=NOC[C@@H](c4ccc(F)cc4)N3)ccc2c(=O)n1-c1ccc(F)cc1 [Example 37] | ≥ 8.00 |
| O=C(O)CCCCc1nc2cc(-c3cc([C@@H](O)c4ccccc4)on3)ccc2c(=O)n1-c1ccc(F)cc1 [Example 101] | ≥ 8.00 |
| C[C@@]1(c2ncc3ccccn23)CC(c2ccc3c(=O)n(-c4ccc(F)cc4)c(CCCCC(=O)O)nc3c2)=NO1 [Example 227] | 7.30 to 8.00 |
| C[C@]1(Cc2ccccc2)CC(c2ccc3c(=O)n(-c4ccc(F)cc4)c(CCCCC(=O)O)nc3c2)=NO1 [Example 26E] | ≥ 8.00 |
| O=C(O)CCCCc1nc2cc(-c3cc(Cc4cnc5ccccc5n4)on3)ccc2c(=O)n1-c1ccc(F)cc1 [Example 25L] | ≥ 8.00 |
| O=C(O)CCCCc1nc2cc(-n3cc(C4CC4)nn3)ccc2c(=O)n1-c1ccc(F)cc1 [Example 21] | ≥ 8.00 |

###

molecular target: CRTH2 receptor (hCRTH2) (Homo sapiens, UniProt Q9Y5Y4); construct: expressed in transfected cells; host or cells: HEK cells (HEK-hCRTH2 cell line), membranes; assay: Radioligand binding assay ([3H]PGD2 competition, membranes of HEK-hCRTH2 cell line); conditions: 3.0 nM [3H]PGD2, HEK-hCRTH2 membranes, 60 min, room temperature; read-out: Ki
The entries below come with measured Ki values attached.

| compound | Ki |
| --- | --- |
| C[C@@]1(Cc2ccc(F)cc2)CC(c2ccc3c(=O)n(-c4ccc(F)cc4)c(CCCCC(=O)O)nc3c2)=NO1 | 10 to 50 nM |
| CC1(c2nc3cc(F)ccc3[nH]2)CC(c2ccc3c(=O)n(-c4ccc(Cl)cc4)c(CCCCC(=O)O)nc3c2)=NO1 (stereo not shown) | ≤ 10 nM |
| O=C(O)CSc1nc2cc(-c3cscn3)ccc2c(=O)n1-c1ccc(F)cc1 | 10 to 50 nM |
| CC[C@](O)(c1ccc(F)cc1)c1cc(-c2ccc3c(=O)n(-c4ccc(F)cc4)c(CCCCC(=O)O)nc3c2)no1 | ≤ 10 nM |

###

Target: CRTH2 receptor (hCRTH2) (Homo sapiens)
Construct: expressed in transfected cells; host or cells: HEK cells (HEK-hCRTH2 cell line), membranes
Sequence (Q9Y5Y4 1-395): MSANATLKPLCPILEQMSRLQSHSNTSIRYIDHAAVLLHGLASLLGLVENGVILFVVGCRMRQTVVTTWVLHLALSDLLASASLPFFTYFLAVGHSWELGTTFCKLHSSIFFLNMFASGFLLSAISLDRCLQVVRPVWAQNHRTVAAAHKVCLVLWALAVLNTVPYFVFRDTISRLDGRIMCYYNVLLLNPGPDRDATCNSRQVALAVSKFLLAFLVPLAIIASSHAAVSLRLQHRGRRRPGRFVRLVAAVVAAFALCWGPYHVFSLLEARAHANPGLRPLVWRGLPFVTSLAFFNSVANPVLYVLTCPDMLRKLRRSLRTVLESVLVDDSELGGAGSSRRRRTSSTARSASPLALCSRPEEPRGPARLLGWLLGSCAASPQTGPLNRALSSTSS
Assay: Radioligand binding assay ([3H]PGD2 competition, membranes of HEK-hCRTH2 cell line)
Conditions: 3.0 nM [3H]PGD2, HEK-hCRTH2 membranes, 60 min, room temperature; read-out: Ki
pKi: −log10 of the molar value.
The entries below come with measured pKi values attached.

| compound | target_desc | pKi |
| --- | --- | --- |
| C[C@@]1([C@H](O)c2ccccc2)CC(c2ccc3c(=O)n(-c4ccc(F)cc4)c(CCCCC(=O)O)nc3c2)=NO1 [Example 26F] | CRTH2 receptor (hCRTH2) (Homo sapiens) | ≥ 8.00 |
| O=C(O)CCCCc1nc2cc(-c3cc(CS(=O)(=O)c4nc5cc(OC(F)F)ccc5[nH]4)on3)ccc2c(=O)n1-c1ccc(F)cc1 [Example 39E] | CRTH2 receptor (hCRTH2) (Homo sapiens) | 7.30 to 8.00 |
| C[C@@]1(c2nc3cc(F)ccc3o2)CC(c2ccc3c(=O)n(-c4ccc(F)cc4)c(CCCCC(=O)O)nc3c2)=NO1 [Example 163] | CRTH2 receptor (hCRTH2) (Homo sapiens) | ≥ 8.00 |
| C[C@@]1(C(=O)N2Cc3ccccc3C2)CC(c2ccc3c(=O)n(-c4ccc(F)cc4)c(CCCCC(=O)O)nc3c2)=NO1 [Example 238] | CRTH2 receptor (hCRTH2) (Homo sapiens) | 7.30 to 8.00 |
| C[C@@]1(C(=O)Nc2ccc(F)cc2O)CC(c2ccc3c(=O)n(-c4ccc(F)cc4)c(CCCCC(=O)O)nc3c2)=NO1 [Example 231] | CRTH2 receptor (hCRTH2) (Homo sapiens) | ≥ 8.00 |
| CC1(c2nc3cc(F)ccc3o2)CC(c2ccc3c(=O)n(-c4ccc(F)cc4)c(CCCCC(=O)O)nc3c2)=NO1 (stereo not drawn) [Example 161] | CRTH2 receptor (hCRTH2) (Homo sapiens) | ≥ 8.00 |
